The values you see were collected from the supplement of paper PMC10065799.

System: Fer (mouse)
Test: phosphorylation enrichment, bacterial display (enrichment ratio); higher = better substrate or ligand; peptides without Tyr show the background
Item-by-item account of phosphorylation enrichment

Previously resolved entries follow.
Memo: IHADICRWFNI [MARS1_Y344_Y344C] , reported phosphorylation enrichment: 0.464

Memo: QQIFTYDSGIH [JUP_Y22_T19I_YF] , reported phosphorylation enrichment: 0.653

Memo: FKGKNYKPLDL [RPL35_Y78_K77N_YF] , reported phosphorylation enrichment: 0.471

Memo: VVPGSYDRLRV [IFT172_Y260_L257P] , reported phosphorylation enrichment: 0.332

Memo: HGTKVYIDPFT [EPHB4_Y590] , reported phosphorylation enrichment: 0.426

Memo: RNIQQYNSFVS [PRKAR1A_Y373] , reported phosphorylation enrichment: 0.534

Memo: AHAGEHGAEAL [HBA1_Y25_Y25H] , reported phosphorylation enrichment: 0.419

Memo: RLLVIYPWTQR [HBG2_Y36_V35I] , reported phosphorylation enrichment: 0.498

Others:
Memo: GNEEAYGRSHI [FAM171B_Y522] , reported phosphorylation enrichment: 0.456

Memo: PPPPAYDDMAQ [TNK2_Y635_V638M] , reported phosphorylation enrichment: 0.551

Memo: CVRTIYTIDGS [DCLK2_Y124_G119C] , reported phosphorylation enrichment: 0.505

Memo: EILLSYPRTGF [TGM1_Y365_L366P_YF] , reported phosphorylation enrichment: 0.397

Memo: SRLDSYVRSLP [TRAPPC1_Y133] , reported phosphorylation enrichment: 0.338

Memo: RGMVMYTSKDR [ZG16B_Y136] , reported phosphorylation enrichment: 0.413

====

Target: FGFR3 (UniProt P22607)
Sequence (P22607 whole entry, looked up): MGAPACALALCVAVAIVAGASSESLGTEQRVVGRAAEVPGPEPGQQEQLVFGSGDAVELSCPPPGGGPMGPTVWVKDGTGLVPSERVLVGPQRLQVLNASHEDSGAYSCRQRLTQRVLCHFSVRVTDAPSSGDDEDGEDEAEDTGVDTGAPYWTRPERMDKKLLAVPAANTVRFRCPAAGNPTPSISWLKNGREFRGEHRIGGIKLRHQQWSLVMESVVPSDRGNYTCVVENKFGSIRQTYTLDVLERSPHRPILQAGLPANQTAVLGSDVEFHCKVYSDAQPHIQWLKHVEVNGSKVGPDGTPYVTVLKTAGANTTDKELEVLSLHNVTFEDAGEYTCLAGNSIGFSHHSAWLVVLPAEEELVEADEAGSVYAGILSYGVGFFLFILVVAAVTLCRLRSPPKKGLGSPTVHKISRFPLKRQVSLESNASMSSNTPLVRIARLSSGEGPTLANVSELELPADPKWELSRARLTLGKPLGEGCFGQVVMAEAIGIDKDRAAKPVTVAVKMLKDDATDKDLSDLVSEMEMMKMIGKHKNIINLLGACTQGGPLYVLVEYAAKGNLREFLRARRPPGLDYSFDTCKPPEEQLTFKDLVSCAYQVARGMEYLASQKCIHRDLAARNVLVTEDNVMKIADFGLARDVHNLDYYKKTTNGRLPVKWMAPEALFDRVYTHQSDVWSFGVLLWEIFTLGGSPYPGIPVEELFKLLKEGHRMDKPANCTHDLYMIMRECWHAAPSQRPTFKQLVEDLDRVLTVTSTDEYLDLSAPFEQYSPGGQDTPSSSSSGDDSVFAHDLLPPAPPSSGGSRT
Assay: phosphorylation enrichment, bacterial display (enrichment ratio); higher = better substrate or ligand; peptides without Tyr show the background
Item-by-item account of phosphorylation enrichment
Just the number, please, no unit after it.

Previously resolved entries follow.
Memo: SVVVPYEPLEV [TP53_Y220_P223L] , reported phosphorylation enrichment: 0.836

Memo: HYEFKYVINAI [MAOA_Y268_C266F] , reported phosphorylation enrichment: 0.964

Memo: QKTGDYFDLFG [PTPN11_Y62_N58K_YF] , reported phosphorylation enrichment: 17

Memo: FSTDFYRVGGH [NTRK2_Y707_YF] , reported phosphorylation enrichment: 0.569

Others:
Memo: RIVEIYSRRLQ [GCH1_Y175] , reported phosphorylation enrichment: 0.96

Memo: KNNDGYTDYAE [MCFD2_Y135_I136T] , reported phosphorylation enrichment: 0.597

Memo: RHFTGYRIELQ [INSR_Y818] , reported phosphorylation enrichment: 0.661

====

Target: Grb2 SH2 (UniProt P62993)
Sequence (P62993 whole entry, looked up): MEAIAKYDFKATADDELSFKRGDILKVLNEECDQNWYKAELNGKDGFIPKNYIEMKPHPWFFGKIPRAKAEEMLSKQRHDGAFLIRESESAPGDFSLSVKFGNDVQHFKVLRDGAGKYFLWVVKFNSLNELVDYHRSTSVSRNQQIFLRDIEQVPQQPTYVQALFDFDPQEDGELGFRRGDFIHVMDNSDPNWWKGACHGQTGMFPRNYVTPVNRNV
Experiment: SH2 binding enrichment of the phosphorylated peptide, bacterial display (enrichment ratio); higher = better substrate or ligand; peptides without Tyr show the background
We use 0.9 as the dividing line for SH2 binding enrichment: on or above the line is 1.0, below is 0.0.

Answered cases to consult:
Task: Can RNGDRYFKEIV [DCX_Y64_G67E] be said to have SH2 binding enrichment at or above 0.9?
Result: 0.0

Task: Can WDSSGYWTPEE [PAPPA2_Y908_C903W] be said to have SH2 binding enrichment at or above 0.9?
Result: 1.0

Task: Can PDMHSYVVRFN [GRIN2D_Y732_M733V_YF] be said to have SH2 binding enrichment at or above 0.9?
Result: 1.0

Task: Can REVKAYGAGLL [TH_Y419_G414R] be said to have SH2 binding enrichment at or above 0.9?
Result: 0.0

Task: Can VTAALYGRLFE [BTD_Y536_YF] be said to have SH2 binding enrichment at or above 0.9?
Result: 1.0

Task: Can KKLHEYNTQFQ [PIK3R1_Y452] be said to have SH2 binding enrichment at or above 0.9?
Result: 1.0

Task: Can KPLMPCMRYSR [SMARCE1_Y73_Y73C] be said to have SH2 binding enrichment at or above 0.9?
Result: 0.0

Task: Can ILTFKYLQKPM [KIT_Y547_YF] be said to have SH2 binding enrichment at or above 0.9?
Result: 0.0

Task: Can SLLLSYFLIKW [NUP160_Y773_P768S_YF] be said to have SH2 binding enrichment at or above 0.9?
Result: 1.0

Could you now look at the following sequence, please?
Task: Can AHARMYGVLPW [PLP1_Y207_D203H] be said to have SH2 binding enrichment at or above 0.9?
Result: 1.0

====

Biological target: FGFR3 (UniProt P22607)
Assay: phosphorylation enrichment, bacterial display (enrichment ratio); higher = better substrate or ligand; peptides without Tyr show the background
property-name: phosphorylation enrichment
Just the number, please, no unit after it.

Previously resolved entries follow.
Memo: LKGQVYILGGE [ASS1_Y359_R363G] , reported phosphorylation enrichment: 1.28

Memo: EEKSCYILHSS [PATJ_Y783_E780K] , reported phosphorylation enrichment: 0.704

Memo: GSETPYMDRTP [ESS2_Y335_V336M] , reported phosphorylation enrichment: 0.413

Memo: QTENKYDSVSG [EIF2AK3_Y565] , reported phosphorylation enrichment: 0.64

Memo: PSAEGYQDVRD [ABLIM1_Y439] , reported phosphorylation enrichment: 0.699

Others:
Memo: FTAVGYHKHFT [NOMO1_Y1137_I1141F] , reported phosphorylation enrichment: 0.589

Memo: KCCCIYEKPRA [PPP1R11_Y64] , reported phosphorylation enrichment: 0.814

Memo: IEENGYNTFAS [FGF10_Y161_YF] , reported phosphorylation enrichment: 0.614

Memo: FGGLRCGFGVL [KRTAP20-2_Y13_Y13C_YF] , reported phosphorylation enrichment: 0.686

Memo: ARGTRYRFVSQ [UCN3_Y95_YF] , reported phosphorylation enrichment: 0.535

Memo: FKNGDYNEVMK [LCT_Y1638] , reported phosphorylation enrichment: 0.548

Memo: EVKAQNEDIAQ [KRT1_Y358_Y358N] , reported phosphorylation enrichment: 0.584

Memo: GAVGNYSGGLA [MGMT_Y158] , reported phosphorylation enrichment: 0.61

Memo: EVEFQYPFRLH [SYP_Y73_E72Q] , reported phosphorylation enrichment: 0.709

Memo: HGTKVYIDPFT [EPHB4_Y590] , reported phosphorylation enrichment: 0.688

Memo: FSDQVYRQHRK [TH_Y230_R233H] , reported phosphorylation enrichment: 0.441

====

Biological target: MERTK (UniProt Q12866)
Sequence (Q12866 whole entry, looked up): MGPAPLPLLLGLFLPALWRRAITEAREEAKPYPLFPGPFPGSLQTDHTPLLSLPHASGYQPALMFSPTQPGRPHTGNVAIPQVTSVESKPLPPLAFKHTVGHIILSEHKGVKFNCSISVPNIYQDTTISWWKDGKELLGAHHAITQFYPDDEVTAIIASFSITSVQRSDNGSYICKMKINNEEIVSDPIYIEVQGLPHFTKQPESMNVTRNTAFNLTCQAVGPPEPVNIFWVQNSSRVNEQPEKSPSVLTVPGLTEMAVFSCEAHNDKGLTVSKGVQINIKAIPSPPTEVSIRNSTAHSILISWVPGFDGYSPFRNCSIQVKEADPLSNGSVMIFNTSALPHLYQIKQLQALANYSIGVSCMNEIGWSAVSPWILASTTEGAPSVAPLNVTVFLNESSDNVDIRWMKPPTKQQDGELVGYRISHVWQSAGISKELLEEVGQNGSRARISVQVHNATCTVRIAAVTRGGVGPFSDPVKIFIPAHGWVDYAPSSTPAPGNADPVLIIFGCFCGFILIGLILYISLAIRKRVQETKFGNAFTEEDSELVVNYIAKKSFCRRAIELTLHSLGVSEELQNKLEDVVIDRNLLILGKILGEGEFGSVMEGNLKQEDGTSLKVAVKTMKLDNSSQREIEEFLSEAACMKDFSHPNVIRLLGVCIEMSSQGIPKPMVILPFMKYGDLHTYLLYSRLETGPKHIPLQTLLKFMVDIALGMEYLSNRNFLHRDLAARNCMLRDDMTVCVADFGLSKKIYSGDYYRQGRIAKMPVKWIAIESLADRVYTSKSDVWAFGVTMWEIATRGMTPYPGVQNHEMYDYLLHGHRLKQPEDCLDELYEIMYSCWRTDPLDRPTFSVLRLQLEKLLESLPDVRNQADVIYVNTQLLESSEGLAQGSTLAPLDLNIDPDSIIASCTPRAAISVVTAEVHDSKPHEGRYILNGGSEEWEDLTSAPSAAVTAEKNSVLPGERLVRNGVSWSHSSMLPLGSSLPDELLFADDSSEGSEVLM
Assay: phosphorylation enrichment, bacterial display (enrichment ratio); higher = better substrate or ligand; peptides without Tyr show the background
property-name: phosphorylation enrichment
Just the number, please, no unit after it.

Previously resolved entries follow.
The reported phosphorylation enrichment value, MERTK (UniProt Q12866), for DVVKDYAFVHM [RBM14_Y114] reads 0.574

The reported phosphorylation enrichment value, MERTK (UniProt Q12866), for PFTRNYYVWAV [CYBA_Y87_R90W] reads 6.79

The reported phosphorylation enrichment value, MERTK (UniProt Q12866), for AHARMYGVLPW [PLP1_Y207_D203H] reads 0.507

Others:
The reported phosphorylation enrichment value, MERTK (UniProt Q12866), for CTTIHYNFMCK [TP53_Y234_N239K_YF] reads 0.407

The reported phosphorylation enrichment value, MERTK (UniProt Q12866), for RHTRSYDYMEG [FGF7_Y56] reads 0.628

The reported phosphorylation enrichment value, MERTK (UniProt Q12866), for FLQTDYTSQVS [FRMPD1_Y846] reads 0.386

The reported phosphorylation enrichment value, MERTK (UniProt Q12866), for DLGIQYKALKP [CTNNA1_Y177] reads 0.453

The reported phosphorylation enrichment value, MERTK (UniProt Q12866), for GGPTYYIDTNA [ACTL6A_Y69] reads 1.08

The reported phosphorylation enrichment value, MERTK (UniProt Q12866), for RGRSTYYWPSP [GAGE12J_Y9_R13S] reads 6.32

====

Target: Hck (UniProt P08631)
Sequence (P08631 whole entry, looked up): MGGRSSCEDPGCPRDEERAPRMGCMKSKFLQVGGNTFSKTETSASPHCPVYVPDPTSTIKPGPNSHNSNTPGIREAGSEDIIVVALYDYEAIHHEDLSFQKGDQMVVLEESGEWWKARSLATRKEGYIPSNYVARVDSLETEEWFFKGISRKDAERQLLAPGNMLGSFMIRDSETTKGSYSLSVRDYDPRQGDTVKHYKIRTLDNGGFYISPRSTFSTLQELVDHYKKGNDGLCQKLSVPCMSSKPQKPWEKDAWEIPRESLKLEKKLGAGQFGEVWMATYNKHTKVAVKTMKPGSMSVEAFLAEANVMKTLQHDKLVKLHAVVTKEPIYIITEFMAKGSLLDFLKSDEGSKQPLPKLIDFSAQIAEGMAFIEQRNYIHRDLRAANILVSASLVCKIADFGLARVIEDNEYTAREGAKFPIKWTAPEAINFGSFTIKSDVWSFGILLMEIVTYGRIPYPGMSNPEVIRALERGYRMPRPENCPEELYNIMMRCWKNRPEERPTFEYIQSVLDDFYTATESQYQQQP
Test: phosphorylation enrichment, bacterial display (enrichment ratio); higher = better substrate or ligand; peptides without Tyr show the background
Item-by-item account of phosphorylation enrichment
Just the number, please, no unit after it.

Previously resolved entries follow.
The reported phosphorylation enrichment value, Hck (UniProt P08631), for NARGLYYKLHN [GATA2_Y376_C373R] reads 0.954

The reported phosphorylation enrichment value, Hck (UniProt P08631), for CTSIHYNFMCN [TP53_Y234_T231S_YF] reads 0.473

The reported phosphorylation enrichment value, Hck (UniProt P08631), for FQCLRYIKQLG [SAMHD1_Y146_R143C] reads 0.452

The reported phosphorylation enrichment value, Hck (UniProt P08631), for IMITDYLPLFR [INSR_Y87_L89P] reads 0.755

Others:
The reported phosphorylation enrichment value, Hck (UniProt P08631), for RSDSTYRMSAT [NHS_Y1532_S1531T] reads 0.436

The reported phosphorylation enrichment value, Hck (UniProt P08631), for NKEPRYQEEPP [TJP2_Y479_D482E] reads 0.508

The reported phosphorylation enrichment value, Hck (UniProt P08631), for RVNSAYQDKVS [ACAN_Y100] reads 0.396
